Would you mind telling me the reported MAGL % inh. 1 µM (human PC3) of each entry?
system: MAGL (Homo sapiens, UniProt Q99685)
Construct: PC3 human cell membrane proteomes; endogenous in cells; host or cells: PC3 human cells (membrane proteome)
Sequence (Q99685 whole entry): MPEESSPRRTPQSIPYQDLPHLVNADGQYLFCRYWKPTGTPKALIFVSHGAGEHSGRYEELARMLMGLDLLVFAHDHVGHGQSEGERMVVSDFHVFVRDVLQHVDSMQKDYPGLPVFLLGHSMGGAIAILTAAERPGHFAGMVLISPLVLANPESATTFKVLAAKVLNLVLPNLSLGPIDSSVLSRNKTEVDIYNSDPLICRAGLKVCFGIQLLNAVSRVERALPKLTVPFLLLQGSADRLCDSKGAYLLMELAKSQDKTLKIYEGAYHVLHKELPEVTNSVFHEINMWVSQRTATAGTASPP
protocol.summary: In vitro competitive activity-based protein profiling (PC3 human cell membrane proteomes)
Format: biochemical
The response must be a number in % with no trailing unit.

Value of MAGL % inh. 1 µM (human PC3) reported for the compound O=C(Nc1cnc(C(F)(F)F)nc1)C1CC12CCN(C(=O)OC(C(F)(F)F)C(F)(F)F)CC2 (single isomer, unassigned) [Example 100] is 75

Lab note: measured MAGL % inh. 1 µM (human PC3) of O=C(NCc1cccnc1)C1CC12CCN(C(=O)OC(C(F)(F)F)C(F)(F)F)CC2 (single isomer, unassigned) was 100

The reported MAGL % inh. 1 µM (human PC3) of the compound O=C(Nc1ccc(C(F)(F)F)nc1)C1CC12CCN(C(=O)OC(C(F)(F)F)C(F)(F)F)CC2 (single isomer, unassigned) [Example 79] was 50

# MAGL % inh. 1 µM (human PC3) of Cc1ncccc1NC(=O)C1CC12CCN(C(=O)OC(C(F)(F)F)C(F)(F)F)CC2 (single isomer, unassigned) [Example 70] = 75

Notebook: O=C(NC(=O)C1CC12CCN(C(=O)OC(C(F)(F)F)C(F)(F)F)CC2)c1ccccc1 (single isomer, unassigned) , MAGL % inh. 1 µM (human PC3) read as 100

// MAGL % inh. 1 µM (human PC3) value for O=C(Nc1cnc(C(F)(F)F)nc1)C1CC12CCN(C(=O)OC(C(F)(F)F)C(F)(F)F)CC2 (single isomer, unassigned) [Example 99] : 100

---

protocol.summary: Kinetic solubility in PBS
Format: physicochemical
condition.set: aqueous buffer, kinetic from dmso stock, PBS pH 7.4, RT, read-out: pH 7.4 Solubility (kinetic)
Assignment: determine reported log10 solubility kinetic at 2 h for the given compounds.
Log scale reminder: solubility kinetic at 2 h in µM, then log10 taken.

Recorded result, O=C(Nc1ccnc(C(F)(F)F)n1)[C@H]1CC12CCN(C(=O)OC(C(F)(F)F)C(F)(F)F)CC2 (single isomer, unassigned) , log10 solubility kinetic at 2 h: -1.15

log10 solubility kinetic at 2 h reported for this compound O=C(Nc1cnc(C(F)(F)F)nc1)C1CC12CCN(C(=O)OC(C(F)(F)F)C(F)(F)F)CC2 (single isomer, unassigned) : 1.45

Record O=C(OC(C(F)(F)F)C(F)(F)F)N1CCC2(CC1)CC2C(=O)N1CCc2ncncc2C1 (single isomer, unassigned) , field log10 solubility kinetic at 2 h: 2.41

# log10 solubility kinetic at 2 h (compound: CP(C)(=O)c1ccc(NC(=O)C2CC23CCN(C(=O)OC(C(F)(F)F)C(F)(F)F)CC3)cn1 (single isomer, unassigned) ) is 2.49

compound O=C(Nc1ccc(-n2cccn2)nc1)C1CC12CCN(C(=O)OC(C(F)(F)F)C(F)(F)F)CC2 (single isomer, unassigned) , log10 solubility kinetic at 2 h observed: 0.94

// log10 solubility kinetic at 2 h value for O=C(Nc1cncc(Cl)c1)C1CC12CCN(C(=O)OC(C(F)(F)F)C(F)(F)F)CC2 (single isomer, unassigned) : 0.94

In plain terms, CS(=O)(=O)Nc1ccc(NC(=O)C2CC23CCN(C(=O)OC(C(F)(F)F)C(F)(F)F)CC3)cn1 (single isomer, unassigned) has a documented log10 solubility kinetic at 2 h of 2.47

Record O=C(Nc1cncnc1)C1CC12CCN(C(=O)OC(C(F)(F)F)C(F)(F)F)CC2 (single isomer, unassigned) . Reported log10 solubility kinetic at 2 h: 2.37

In plain terms, O=C(NCc1cccc(C(F)(F)F)n1)C1CC12CCN(C(=O)OC(C(F)(F)F)C(F)(F)F)CC2 (single isomer, unassigned) has a documented log10 solubility kinetic at 2 h of 0.12

Reported log10 solubility kinetic at 2 h of Cc1cnc(NC(=O)C2CC23CCN(C(=O)OC(C(F)(F)F)C(F)(F)F)CC3)cn1 (single isomer, unassigned) : 2.04

Looking up O=C(Nc1cncc(F)c1)C1CC12CCN(C(=O)OC(C(F)(F)F)C(F)(F)F)CC2 (single isomer, unassigned) , I see its log10 solubility kinetic at 2 h listed as 2.00
